// provenance: patent US8906930B2

Parameter: IC50. Scope: all listed entries.
molecular target: Recombinant human HSP90α (Homo sapiens); assay: HSP90 radioligand filter binding test ([3H]17AAG competition); settings: radioligand [3H]17AAG 0.08 μM; HSP90 1.5 μg/assay; 22° C., 30 min; read-out: HSP90 inhibition IC50

>>> observed("CC(C)(C)NC(=O)C(C)(C)c1ccc2nc(N)nc(C(=O)N3Cc4ccccc4C3)c2c1 [Compound A35]")
"10 to 1000 nM"
>>> observed("NC(=O)Cc1ccc2nc(N)nc(C(=O)N3Cc4ccccc4C3)c2c1 [Compound A3]")
"1000 to 10000 nM"
>>> observed("C=C(CC(C(=O)O)c1ccc2nc(N)nc(C(=O)N3Cc4ccccc4C3)c2c1)C(N)=O (centres unmarked) [Compound A74]")
"1000 to 10000 nM"

Lab note: measured IC50 of CC(C)CNC(=O)C(C)(C)c1ccc2nc(N)nc(C(=O)N3Cc4ccccc4C3)c2c1 [Compound A37] was 10 to 1000 nM

// IC50 lookup, molecule = CCCNC(=O)C1(c2ccc3nc(N)nc(C(=O)N4Cc5ccccc5C4)c3c2)CCC1 [Compound A32] , result: 10 to 1000 nM

// IC50 value for CC1CCC(C)N1C(=O)Cc1ccc2nc(N)nc(C(=O)N3Cc4ccccc4C3)c2c1 (centres unmarked) [Compound A15] : 1000 to 10000 nM

Given item CCOC(=O)Cc1ccc2nc(N)nc(C(=O)N3Cc4ccccc4C3)c2c1 [Compound A1] , the value recorded as its IC50 is 10 to 1000 nM

Looking up CCNC(=O)C(CC(C)C)c1ccc2nc(N)nc(C(=O)N3Cc4ccccc4C3)c2c1 (centres unmarked) [Compound A46] , I see its IC50 listed as 10 to 1000 nM

The value of IC50 measured for the molecule CC(C)(C)NC(=O)C1(c2ccc3nc(N)nc(C(=O)N4Cc5ccccc5C4)c3c2)CC1 [Compound A20] turned out to be 10 to 1000 nM

Query CCNC(=O)Cc1ccc2nc(N)nc(C(=O)N3Cc4ccccc4C3)c2c1 [Compound A6] yields IC50 of 1000 to 10000 nM

Per the record, NC(=O)C1(c2ccc3nc(N)nc(C(=O)N4Cc5ccccc5C4)c3c2)CCC1 [Compound A5] has IC50 of 10 to 1000 nM

Per the records, this molecule ( CCCCC(C(=O)NCC)c1ccc2nc(N)nc(C(=O)N3Cc4ccccc4C3)c2c1 (centres unmarked) [Compound A44] ) has IC50 equal to 10 to 1000 nM

Lab note: measured IC50 of CC(C)CNC(=O)C1(c2ccc3nc(N)nc(C(=O)N4Cc5ccccc5C4)c3c2)CCC1 [Compound A34] was 10 to 1000 nM

response.value for CCN(C)C(=O)C1(c2ccc3nc(N)nc(C(=O)N4Cc5ccccc5C4)c3c2)CC1 [Compound A23] (field: IC50) = 1000 to 10000 nM

// IC50 lookup, molecule = NC(=O)CNC(=O)C1(c2ccc3nc(N)nc(C(=O)N4Cc5ccccc5C4)c3c2)CCC1 [Compound A33] , result: 10 to 1000 nM

Record Nc1nc(C(=O)N2Cc3ccccc3C2)c2cc(CC(=O)N3CCCC3)ccc2n1 [Compound A13] . Reported IC50: 1000 to 10000 nM

Per the record, CCN(CC)C(=O)Cc1ccc2nc(N)nc(C(=O)N3Cc4ccccc4C3)c2c1 [Compound A8] has IC50 of 1000 to 10000 nM

###

molecular target: Recombinant human HSP90α (Homo sapiens); test: HSP90 radioligand filter binding test ([3H]17AAG competition); conditions: radioligand [3H]17AAG 0.08 μM; HSP90 1.5 μg/assay; 22° C., 30 min; read-out: HSP90 inhibition IC50
pIC50: −log10 of the molar value.
value_kind: pIC50

Sample answers from the record:
>>> observed("Nc1nc(C(=O)N2Cc3ccccc3C2)c2cc(CC(=O)N3CCNCC3)ccc2n1")
"< 5.00"
>>> observed("CCN(CCN(C)C)C(=O)C1(c2ccc3nc(N)nc(C(=O)N4Cc5ccccc5C4)c3c2)CC1")
"5.00 to 6.00"
>>> observed("CN(C)C(=O)Cc1ccc2nc(N)nc(C(=O)N3Cc4ccccc4C3)c2c1")
"5.00 to 6.00"

// next item, pIC50 requested
According to the records, this compound CCNC(=O)C(CCC(C)C)c1ccc2nc(N)nc(C(=O)N3Cc4ccccc4C3)c2c1 (centres unmarked) displays pIC50 of 6.00 to 8.00

###

molecular target: Recombinant human HSP90α (Homo sapiens, UniProt P07900); experiment: HSP90 radioligand filter binding test ([3H]17AAG competition); details: radioligand [3H]17AAG 0.08 μM; HSP90 1.5 μg/assay; 22° C., 30 min; read-out: HSP90 inhibition IC50
pIC50: −log10 of the molar value.
value_kind: pIC50

>>> observed("CC1CCCN1C(=O)Cc1ccc2nc(N)nc(C(=O)N3Cc4ccccc4C3)c2c1 (centres unmarked)")
"5.00 to 6.00"
>>> observed("CCCNC(=O)C(C)(C)c1ccc2nc(N)nc(C(=O)N3Cc4ccccc4C3)c2c1")
"6.00 to 8.00"
>>> observed("CNC(=O)C1(c2ccc3nc(N)nc(C(=O)N4Cc5ccccc5C4)c3c2)CCC1")
"6.00 to 8.00"
>>> observed("NC(=O)C(CCC(F)F)c1ccc2nc(N)nc(C(=O)N3Cc4ccccc4C3)c2c1 (centres unmarked)")
"6.00 to 8.00"
>>> observed("CCCC(C)(C(=O)NCC)c1ccc2nc(N)nc(C(=O)N3Cc4ccccc4C3)c2c1 (centres unmarked)")
"6.00 to 8.00"

Recorded pIC50 (compound "CCNC(=O)C1(c2ccc3nc(N)nc(C(=O)N4Cc5ccccc5C4)c3c2)CCCC1" ): 6.00 to 8.00

Quick note, pIC50 for "CN1CCN(Cc2ccc3nc(N)nc(C(=O)N4Cc5ccccc5C4)c3c2)CC1" landed at 5.00 to 6.00

Reported pIC50 ( "CNC(=O)Cc1ccc2nc(N)nc(C(=O)N3Cc4ccccc4C3)c2c1" ) = 5.00 to 6.00

###

biological target: Recombinant human HSP90α (Homo sapiens, UniProt P07900); test: HSP90 radioligand filter binding test ([3H]17AAG competition); conditions: radioligand [3H]17AAG 0.08 μM; HSP90 1.5 μg/assay; 22° C., 30 min; read-out: HSP90 inhibition IC50
pIC50: −log10 of the molar value.
value_kind: pIC50

Consider the following illustrative entries.
>>> observed("CCCC(C(=O)NCC)c1ccc2nc(N)nc(C(=O)N3Cc4ccccc4C3)c2c1 (stereo not shown)")
"6.00 to 8.00"
>>> observed("CNC(=O)C(CCC(F)F)c1ccc2nc(N)nc(C(=O)N3Cc4ccccc4C3)c2c1 (stereo not shown)")
"6.00 to 8.00"
>>> observed("CCOC(=O)C1(c2ccc3nc(N)nc(C(=O)N4Cc5ccccc5C4)c3c2)CC1")
"6.00 to 8.00"

# molecule CCNC(=O)C(CCC(F)F)c1ccc2nc(N)nc(C(=O)N3Cc4ccccc4C3)c2c1 (stereo not shown) ; its pIC50 = 5.00 to 6.00
